- Tested on: HT-29
- methodDescription: Cytotoxicity against human HT-29 cells assessed as reduction in cell viability after 48 hrs by MTT assay
- Type: functional, cell-based
- particulars: HT-29, 48 h
The following molecules are listed with their measured IC50 values.

C[C@H]1[C@@H](O[C@H](C#N)c2ccc(Br)cc2)O[C@@H]2O[C@@]3(C)CC[C@H]4[C@H](C)CC[C@@H]1[C@@]24OO3
10 to 490 nM

Challenge: Need IC50, item C[C@H]1[C@@H](O[C@@H](C#N)c2ccc(Br)cc2)O[C@@H]2O[C@@]3(C)CC[C@H]4[C@H](C)CC[C@@H]1[C@@]24OO3
Response given: 10 to 490 nM
